Tested Target: human IL-1beta (human, UniProt P01584 117-269)
Method Description: SPR (BIAcore); antibody captured by anti-Fc, IL-1beta injected
Measured Metric: kon (M⁻¹ s⁻¹)

huH34-2 (antibody, V domains shown, Humanized antibody expressed in HEK cells; also called huH34-2 bivalent; humanized version of H34) VH: QVQLVQSGAEVKKPGASVKVSCKASGYTFTGYYMHWVRQAPGQGLEWIGYISSYNAFTTYNQKFRGRATFTVDTSISTAYMELSRLRSDDTAVYYCVRSDYYGTSLYWGQGTLVTVSS VL: EIVLTQSPATLSLSPGERATLSCRASSSVSYMHWSQQKPGQAPRLLIYSTSNLASGIPARFSGSGSGTDFTLTISSLEPEDFAVYYCHQWSNYYTFGQGTKLEIK    1.93e+06
Canakinumab (antibody, V domains shown) VH: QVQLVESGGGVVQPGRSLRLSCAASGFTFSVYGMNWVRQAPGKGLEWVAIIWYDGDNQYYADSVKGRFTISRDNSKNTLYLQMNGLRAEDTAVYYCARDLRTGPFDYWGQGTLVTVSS VL: EIVLTQSPDFQSVTPKEKVTITCRASQSIGSSLHWYQQKPDQSPKLLIKYASQSFSGVPSRFSGSGSGTDFTLTINSLEAEDAAAYYCHQSSSLPFTFGPGTKVDIKR    2.78e+06
H34 + C52aS mutations (antibody, V domains shown) VH: EVQLQQSGPELVKTGASVKISCKASGYSFTGYYMHWVKQSHGKSLEWIGYISSYNAFTTYNQRFRGKATFTVDTSSSTAYMQFNSLTSEDSAVYYCVRSDYYGTSLYWGQGTTLTVSS VL: QIVLTQSPAIMSASLGEEITLTCSASSSVSYMHWSQQKSGSSPKLLIYSTSNLASGVPSRFSGSGSGTFYSLTISSVEAEDAADYYCHQWSNYYTFGGGTKLEIK    1.6e+06
